System: BTK (Homo sapiens, UniProt Q06187)
Construct: The GM01501.3 cell line endogenously expresses BTK with a HiBiT fusion tag via CRISPR knock-in at its C-terminal region; endogenous in cells; host or cells: GM01501.3 (GM01501 cells engineered by CRISPR knock-in of HiBiT at the BTK locus)
Sequence (Q06187 whole entry, the tested form may be a part): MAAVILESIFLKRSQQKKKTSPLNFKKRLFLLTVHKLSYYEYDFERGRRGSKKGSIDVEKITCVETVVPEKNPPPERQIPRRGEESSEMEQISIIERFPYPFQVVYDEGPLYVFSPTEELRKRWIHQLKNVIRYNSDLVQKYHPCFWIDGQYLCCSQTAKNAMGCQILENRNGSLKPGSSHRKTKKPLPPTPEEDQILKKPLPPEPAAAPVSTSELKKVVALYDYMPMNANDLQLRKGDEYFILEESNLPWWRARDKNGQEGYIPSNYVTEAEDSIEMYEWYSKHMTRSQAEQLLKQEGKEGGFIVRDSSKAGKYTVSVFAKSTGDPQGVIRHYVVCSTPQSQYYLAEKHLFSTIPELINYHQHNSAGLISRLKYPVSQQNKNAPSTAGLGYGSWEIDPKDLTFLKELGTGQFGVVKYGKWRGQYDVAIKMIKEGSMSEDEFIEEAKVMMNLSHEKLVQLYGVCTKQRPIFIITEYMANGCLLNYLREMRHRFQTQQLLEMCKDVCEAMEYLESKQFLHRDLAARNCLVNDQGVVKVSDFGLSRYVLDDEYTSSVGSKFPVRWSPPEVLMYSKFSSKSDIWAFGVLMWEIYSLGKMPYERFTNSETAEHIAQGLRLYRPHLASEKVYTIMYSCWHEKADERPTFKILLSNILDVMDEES
Protocol description: BTK degradation assay using the HiBiT Method (Nano-Glo HiBiT Lytic Assay, GM01501.3 cells)
Format: cell-based
Measurement parameters: HiBiT Degradation on GM01501.3 BTK @ 6 hours
Here the recorded DC50 is given for each entry.

Field: example entries. Status: answers known.
• Cc1cc(-c2ncnn3cc(N4CCN(C(=O)CCC5CCCN5C(=O)c5ccc(OC6CCC(=O)NC6=O)cc5)CC4)cc23)ccc1CNC(=O)c1noc(C(C)(C)C)n1 (stereo not shown) [Example 181] = < 100 nM
• Cc1cc(-c2ncnn3cc(-c4ccc(CN5CCC(c6ccc(NC7CCC(=O)NC7=O)cc6)C(F)(F)C5)cc4)cc23)ccc1CNC(=O)c1noc(C(C)(C)C)n1 (stereo not shown) [Example 240] = < 100 nM
• Cn1nc(N2CCC(=O)NC2=O)c2ccc(C3CCN(Cc4ccc(-c5cc6c(-c7ccc(CNC(=O)c8noc(C(C)(C)C)n8)c(F)c7)ncnn6c5)c(F)c4)CC3)cc21 [Example 242] = < 100 nM

[ask] Quick check: DC50 of Cc1cc(-c2ncnn3cc(CCCCN4CCN(c5ccc(NC6CCC(=O)NC6=O)cc5)CC4)cc23)ccc1CNC(=O)c1noc(C(C)(C)C)n1 (stereo not shown) [Example 131] ?
[reply] < 100 nM

[ask] Quick check: DC50 of Cc1cc(-c2ncnn3cc(CCCCN4CCN(c5ccc(C6CCC(=O)NC6=O)cn5)CC4)cc23)ccc1CNC(=O)c1noc(C(C)(C)C)n1 (stereo not shown) [Example 279] ?
[reply] < 100 nM

[ask] Quick check: DC50 of Cc1cc(-c2ncnn3cc(-c4ccc(CN5CCC(Oc6ccc(NC7CCC(=O)NC7=O)cc6)CC5)cc4)cc23)ccc1CNC(=O)c1noc(C(C)(C)C)n1 (stereo not shown) [Example 201] ?
[reply] < 100 nM

[ask] Quick check: DC50 of Cc1cc(-c2ncnn3cc(-c4ccc(CN5CCC(c6ccc(NC7CCC(=O)NC7=O)cc6)CC5)cc4)cc23)ccc1CNC(=O)COCC(C)(C)C (stereo not shown) [Example 70] ?
[reply] < 100 nM

[ask] Quick check: DC50 of Cc1cc(-c2ncnn3cc(-c4ccc(CN5CCC(c6ccc(NC7CCC(=O)NC7=O)cc6)CC5)cc4)cc23)ccc1CNC(=O)c1ccc(C(C)C)cn1 (stereo not shown) [Example 89] ?
[reply] < 100 nM

[ask] Quick check: DC50 of Cc1cc(-c2ncnn3cc(-c4ccc(CN5CCC(c6ccc(OC7CCC(=O)NC7=O)cc6)CC5)cc4)cc23)ccc1CNC(=O)c1noc(C(C)(C)C)n1 (stereo not shown) [Example 19] ?
[reply] < 100 nM

----------
System: BTK (Homo sapiens)
Construct: The GM01501.3 cell line endogenously expresses BTK with a HiBiT fusion tag via CRISPR knock-in at its C-terminal region; endogenous in cells; host or cells: GM01501.3 (GM01501 cells engineered by CRISPR knock-in of HiBiT at the BTK locus)
Protocol description: BTK degradation assay using the HiBiT Method (Nano-Glo HiBiT Lytic Assay, GM01501.3 cells)
Format: cell-based
Measurement parameters: HiBiT Degradation on GM01501.3 BTK @ 6 hours
Here the recorded DC50 is given for each entry.

• Cc1cc(-c2ncnn3cc(CCC(F)(F)CN4CCC(c5ccc(C6CCC(=O)NC6=O)cc5)CC4)cc23)ccc1CNC(=O)c1noc(C(C)(C)C)n1 (stereo not drawn) = < 0.1 µM

[ask] Test system BTK (Homo sapiens); read-out DC50; what value for CC(C)(C)c1nc(C(=O)NCc2ccc(-c3ncnn4cc(-c5ccc(CN6CC[C@H](c7ccc(NC8CCC(=O)NC8=O)cc7)CC67CC7)cc5)cc34)cc2F)no1 (stereo partly drawn) ?
[reply] 0.1 to 0.5 µM

All figures here come from patent US20240287076A1.
